# protocol_notes: AUC(0 to infinity) in rat at 15 mg/kg, ip administered as single dose and measured at 5 to 480 mins by LC-MS analysis
# Format: ADME, organism-based
# condition: in vivo, time 5-480 min
readout: AUC(0-inf) (µg·h/mL)
One number for each entry, in µg·h/mL.

Input line: If you can, please state the reported AUC(0-inf) value of CC(C)c1cc(C(=O)N2Cc3ccc(CN4CCN(CCCCCCC(=O)Nc5cccc6c5C(=O)N(C5CCC(=O)NC5=O)C6=O)CC4)cc3C2)ccc1O (stereo unspecified) .
Output line: 0.758

* * *

Record form. Attribute: IC50. Fill in for each entry.
# System: MX1
# protocol_notes: Antiproliferative activity against human MX1 cells assessed as inhibition of cell proliferation incubated for 72 hrs by MTT assay
# Format: functional, cell-based
# condition: MX1, 72 h
Numbers only, in µM.

CC(C)c1cc(C(=O)N2Cc3ccc(CN4CCN(C(=O)CNc5cccc6c5CN(C5CCC(=O)NC5=O)C6=O)CC4)cc3C2)c(O)cc1O (configuration not stated) = 3.46
CC(C)c1cc(C(=O)N2Cc3ccc(CN4CCN(CCCCC(=O)Nc5cccc6c5C(=O)N(C5CCC(=O)NC5=O)C6=O)CC4)cc3C2)c(O)cc1O (configuration not stated) = 6.78
CC(C)c1cc(C(=O)N2Cc3ccc(CN4CCN(CCCCCCCC(=O)Nc5cccc6c5C(=O)N(C5CCC(=O)NC5=O)C6=O)CC4)cc3C2)ccc1O (configuration not stated) = 63

Please give IC50, item by item, for the list that follows.
1. CC(C)c1cc(C(=O)N2Cc3ccc(CN4CCN(CCCCCCC(=O)Nc5cccc6c5C(=O)N(C5CCC(=O)NC5=O)C6=O)CC4)cc3C2)ccc1O (configuration not stated)
2. CC(C)c1cc(C(=O)N2Cc3ccc(CN4CCN(C(=O)CCCNc5cccc6c5CN(C5CCC(=O)NC5=O)C6=O)CC4)cc3C2)c(O)cc1O (configuration not stated)

Output line:
1. 12
2. 1.19

* * *

# protocol_notes: Cmax in rat at 15 mg/kg, ip administered as single dose and measured at 5 to 480 mins by LC-MS analysis
# Type: ADME, organism-based
# condition: in vivo, time 5-480 min
readout: Cmax (ng/mL)
Numbers only, in ng/mL.

Input line: If you can, please state the reported Cmax value of CC(C)c1cc(C(=O)N2Cc3ccc(CN4CCN(CCCCCCC(=O)Nc5cccc6c5C(=O)N(C5CCC(=O)NC5=O)C6=O)CC4)cc3C2)ccc1O (stereo unspecified) .
Output line: 302

* * *

# Tested on: MDA-MB-468
# protocol_notes: Antiproliferative activity against human MDA-MB-468 cells assessed as inhibition of cell proliferation incubated for 72 hrs by MTT assay
# Type: functional, cell-based
# condition: MDA-MB-468, 72 h
Would you mind sorting the entries by IC50 according to these classes? c1 = under 10 µM, c2 = from 10 µM up to 30 µM, c3 = 30 µM and over

Examples with answers:
CC(C)c1cc(C(=O)N2Cc3ccc(CN4CCN(CCCCCC(=O)Nc5cccc6c5C(=O)N(C5CCC(=O)NC5=O)C6=O)CC4)cc3C2)c(O)cc1O (configuration not stated) = c2
CC(C)c1cc(C(=O)N2Cc3ccc(CN4CCN(C(=O)CCCNc5cccc6c5CN(C5CCC(=O)NC5=O)C6=O)CC4)cc3C2)c(O)cc1O (configuration not stated) = c2
Nc1cccc2c1CN(C1CCC(=O)NC1=O)C2=O (configuration not stated) [LENALIDOMIDE] = c3
CC(C)c1cc(C(=O)N2Cc3ccc(CN4CCN(CCC(=O)Nc5cccc6c5C(=O)N(C5CCC(=O)NC5=O)C6=O)CC4)cc3C2)ccc1O (configuration not stated) = c3
CC(C)c1cc(C(=O)N2Cc3ccc(CN4CCN(CCCCCCCC(=O)Nc5cccc6c5C(=O)N(C5CCC(=O)NC5=O)C6=O)CC4)cc3C2)ccc1O (configuration not stated) = c3

Input line: Into which bin does this compound go? CC(C)c1cc(C(=O)N2Cc3ccc(CN4CCN(C)CC4)cc3C2)c(O)cc1O
Output line: c1

Input line: Into which bin does this compound go? CC(C)c1cc(C(=O)N2Cc3ccc(CN4CCN(CCCC(=O)Nc5cccc6c5C(=O)N(C5CCC(=O)NC5=O)C6=O)CC4)cc3C2)ccc1O (configuration not stated)
Output line: c3

Input line: Into which bin does this compound go? CC(C)c1cc(C(=O)N2Cc3ccc(CN4CCN(C(=O)CCCCCNc5cccc6c5CN(C5CCC(=O)NC5=O)C6=O)CC4)cc3C2)c(O)cc1O (configuration not stated)
Output line: c1

Input line: Into which bin does this compound go? CC(C)c1cc(C(=O)N2Cc3ccc(CN4CCN(CCCCC(=O)Nc5cccc6c5C(=O)N(C5CCC(=O)NC5=O)C6=O)CC4)cc3C2)ccc1O (configuration not stated)
Output line: c3

Input line: Into which bin does this compound go? CC(C)c1cc(C(=O)N2Cc3ccc(CN4CCN(CCC(=O)Nc5cccc6c5C(=O)N(C5CCC(=O)NC5=O)C6=O)CC4)cc3C2)c(O)cc1O (configuration not stated)
Output line: c1

Input line: Into which bin does this compound go? CC(C)c1cc(C(=O)N2Cc3ccc(CN4CCN(C(=O)CCCCNc5cccc6c5CN(C5CCC(=O)NC5=O)C6=O)CC4)cc3C2)c(O)cc1O (configuration not stated)
Output line: c2
